Organism: Rattus norvegicus
Assay: Open TG-GATES - Regimen: Daily Repeat
Assay type: toxicity, organism-based, Sprague-Dawley
Set-up: regimen Daily Repeat, gender Male, age 6 weeks
Conditions: in vivo, po, 100 mg/kg, 72 h, tissue Plasma, route gavage, dose level Low, time 3 day
Rule: fulfilled for AST not less than 70 IU/L, not fulfilled for anything less.

Known results for molecules:
molecule: COC(=O)C1=C(C)NC(C)=C(C(=O)OC)C1c1ccccc1[N+](=O)[O-] [NIFEDIPINE]
discreteLabel: not fulfilled
//
molecule: CN/C(=N/CCSCc1nc[nH]c1C)NC#N [CIMETIDINE]
discreteLabel: not fulfilled
//
molecule: O=C(OC[C@H]1O[C@@H](OC(=O)c2cc(O)c(O)c(OC(=O)c3cc(O)c(O)c(O)c3)c2)[C@H](OC(=O)c2cc(O)c(O)c(OC(=O)c3cc(O)c(O)c(O)c3)c2)[C@@H](OC(=O)c2cc(O)c(O)c(OC(=O)c3cc(O)c(O)c(O)c3)c2)[C@@H]1OC(=O)c1cc(O)c(O)c(OC(=O)c2cc(O)c(O)c(O)c2)c1)c1cc(O)c(O)c(OC(=O)c2cc(O)c(O)c(O)c2)c1 [TANNIC ACID]
discreteLabel: not fulfilled
//
molecule: CNC(=C[N+](=O)[O-])NCCSCc1ccc(CN(C)C)o1 [RANITIDINE]
discreteLabel: not fulfilled

Record Cc1nnc2n1-c1ccc(Cl)cc1C(c1ccccc1Cl)=NC2 [TRIAZOLAM] ; criterion: AST no lower than 70 IU/L. Met?
fulfilled

---

Item-by-item account of BUN
Organism: Rattus norvegicus
Assay: Open TG-GATES - Regimen: Single
Format: toxicity, organism-based, Sprague-Dawley
Design: regimen Single, gender Male, age 6 weeks
Settings: in vivo, po, 0 mg/kg, 3 h, tissue Plasma, route gavage, dose level Control
Please don't drop the unit; write it after the number.

compound: CN/C(=N/CCSCc1nc[nH]c1C)NC#N [CIMETIDINE]
BUN: 12.4 mg/dL

Dear colleague, please send me the reported BUN for CC(C)NNC(=O)c1ccncc1 [IPRONIAZID] when you can.
13.6 mg/dL

---

Measured gamma-GTP, listed per entry for reference.
Organism: Rattus norvegicus
Experiment: Open TG-GATES - Regimen: Single
Assay type: toxicity, organism-based, Sprague-Dawley
Design: regimen Single, gender Male, age 6 weeks
Conditions: in vivo, po, 300 mg/kg, 9 h, tissue Plasma, route gavage, dose level Middle
Give a bare numeral; the unit IU/L is implied.

compound: CNC(=C[N+](=O)[O-])NCCSCc1ccc(CN(C)C)o1 [RANITIDINE]
recordedMetric: gamma-GTP
unitTag: IU/L
recordedNumber: 1.4
//
compound: COC(=O)C1=C(C)NC(C)=C(C(=O)OC)C1c1ccccc1[N+](=O)[O-] [NIFEDIPINE]
recordedMetric: gamma-GTP
unitTag: IU/L
recordedNumber: 1

Give the reported value of gamma-GTP for this record: CN/C(=N/CCSCc1nc[nH]c1C)NC#N [CIMETIDINE]
1.6

Please list gamma-GTP recorded for the compound O=C(OC[C@H]1O[C@@H](OC(=O)c2cc(O)c(O)c(OC(=O)c3cc(O)c(O)c(O)c3)c2)[C@H](OC(=O)c2cc(O)c(O)c(OC(=O)c3cc(O)c(O)c(O)c3)c2)[C@@H](OC(=O)c2cc(O)c(O)c(OC(=O)c3cc(O)c(O)c(O)c3)c2)[C@@H]1OC(=O)c1cc(O)c(O)c(OC(=O)c2cc(O)c(O)c(O)c2)c1)c1cc(O)c(O)c(OC(=O)c2cc(O)c(O)c(O)c2)c1 [TANNIC ACID]
1.8

Look up and report measured gamma-GTP for this entry: Cc1nnc2n1-c1ccc(Cl)cc1C(c1ccccc1Cl)=NC2 [TRIAZOLAM]
1.2

---

Organism: Rattus norvegicus
Test: Open TG-GATES - Regimen: Daily Repeat
Assay type: toxicity, organism-based, Sprague-Dawley
Design: regimen Daily Repeat, gender Male, age 6 weeks
Settings: in vivo, po, 0 mg/kg, […], tissue Blood, route gavage, dose level Control, time 14 day
recordedMetric: Bas (%)
// return numeric value only (unit: %, not printed)

Worked examples, 4 compounds total:
compound: O=C(OC[C@H]1O[C@@H](OC(=O)c2cc(O)c(O)c(OC(=O)c3cc(O)c(O)c(O)c3)c2)[C@H](OC(=O)c2cc(O)c(O)c(OC(=O)c3cc(O)c(O)c(O)c3)c2)[C@@H](OC(=O)c2cc(O)c(O)c(OC(=O)c3cc(O)c(O)c(O)c3)c2)[C@@H]1OC(=O)c1cc(O)c(O)c(OC(=O)c2cc(O)c(O)c(O)c2)c1)c1cc(O)c(O)c(OC(=O)c2cc(O)c(O)c(O)c2)c1
unitTag: %
recordedNumber: 0
//
compound: Cc1nnc2n1-c1ccc(Cl)cc1C(c1ccccc1Cl)=NC2
unitTag: %
recordedNumber: 0.4
//
compound: CCOc1ccc(NC(C)=O)cc1
unitTag: %
recordedNumber: 0
//
compound: CN(C)CCC(c1ccc(Cl)cc1)c1ccccn1 (stereo not given)
unitTag: %
recordedNumber: 0.4

Okay, next one:
Please give the documented Bas of `CC(C)NNC(=O)c1ccncc1`
0

---

Listing of recorded K by entry.
Species: Rattus norvegicus
Experiment: Open TG-GATES - Regimen: Single
Format: toxicity, organism-based, Sprague-Dawley
Set-up: regimen Single, gender Male, age 6 weeks
Conditions: in vivo, po, 1000 mg/kg, 24 h, tissue Plasma, route gavage, dose level High
Numeric only. Scale: meq/L

Some solved cases for reference:
compound: CNC(=C[N+](=O)[O-])NCCSCc1ccc(CN(C)C)o1 [RANITIDINE]
unitTag: meq/L
K: 3.7
--
compound: CN/C(=N/CCSCc1nc[nH]c1C)NC#N [CIMETIDINE]
unitTag: meq/L
K: 3.8
--
compound: COC(=O)C1=C(C)NC(C)=C(C(=O)OC)C1c1ccccc1[N+](=O)[O-] [NIFEDIPINE]
unitTag: meq/L
K: 3.8

Specify measured K for Cc1nnc2n1-c1ccc(Cl)cc1C(c1ccccc1Cl)=NC2 [TRIAZOLAM] .
4.3

Give reported K value for O=C(OC[C@H]1O[C@@H](OC(=O)c2cc(O)c(O)c(OC(=O)c3cc(O)c(O)c(O)c3)c2)[C@H](OC(=O)c2cc(O)c(O)c(OC(=O)c3cc(O)c(O)c(O)c3)c2)[C@@H](OC(=O)c2cc(O)c(O)c(OC(=O)c3cc(O)c(O)c(O)c3)c2)[C@@H]1OC(=O)c1cc(O)c(O)c(OC(=O)c2cc(O)c(O)c(O)c2)c1)c1cc(O)c(O)c(OC(=O)c2cc(O)c(O)c(O)c2)c1 [TANNIC ACID]
4.6

---

Species on record: Rattus norvegicus
Assay: Open TG-GATES - Regimen: Daily Repeat
Type: toxicity, organism-based, Sprague-Dawley
Set-up: regimen Daily Repeat, gender Male, age 6 weeks
Conditions: in vivo, po, 1000 mg/kg, 72 h, tissue Blood, route gavage, dose level High, time 3 day
recordedMetric: RBC
Number first, unit second: that is the form wanted.

Some entries whose results are on file:
structureAsSmiles: COC(=O)C1=C(C)NC(C)=C(C(=O)OC)C1c1ccccc1[N+](=O)[O-]
recordedMetric: RBC
result: 683.2 x10_4/ul

structureAsSmiles: CNC(=C[N+](=O)[O-])NCCSCc1ccc(CN(C)C)o1
recordedMetric: RBC
result: 631.4 x10_4/ul

Please turn your attention to the following entry.
Note down RBC recorded for `CCOc1ccc(NC(C)=O)cc1`
633.4 x10_4/ul

---

Species: Rattus norvegicus
Test: Open TG-GATES - Regimen: Daily Repeat
Format: toxicity, organism-based, Sprague-Dawley
Parameters: regimen Daily Repeat, gender Male, age 6 weeks
Settings: in vivo, po, 0 mg/kg, 72 h, tissue Plasma, route gavage, dose level Control, time 3 day
recordedMetric: TBIL (mg/dL)
// units = mg/dL; emit number, no label

compound: COC(=O)C1=C(C)NC(C)=C(C(=O)OC)C1c1ccccc1[N+](=O)[O-]
unitTag: mg/dL
TBIL: 0.028

Indicate its recorded TBIL; the compound in question is CN(C)CCC(c1ccc(Cl)cc1)c1ccccn1 (stereo not drawn)
0.034

Quickly give me recorded TBIL for `CCOc1ccc(NC(C)=O)cc1`
0.04

Quick one: give measured TBIL for `CNC(=C[N+](=O)[O-])NCCSCc1ccc(CN(C)C)o1`
0.2

Output measured TBIL for this item: `CN/C(=N/CCSCc1nc[nH]c1C)NC#N`
0.2

Read the entry `O=C(OC[C@H]1O[C@@H](OC(=O)c2cc(O)c(O)c(OC(=O)c3cc(O)c(O)c(O)c3)c2)[C@H](OC(=O)c2cc(O)c(O)c(OC(=O)c3cc(O)c(O)c(O)c3)c2)[C@@H](OC(=O)c2cc(O)c(O)c(OC(=O)c3cc(O)c(O)c(O)c3)c2)[C@@H]1OC(=O)c1cc(O)c(O)c(OC(=O)c2cc(O)c(O)c(O)c2)c1)c1cc(O)c(O)c(OC(=O)c2cc(O)c(O)c(O)c2)c1` and write its reported TBIL.
0.3

Look up and report measured TBIL for this entry: `CC(C)NNC(=O)c1ccncc1`
0.004

Provide one value: measured TBIL of `Brc1ccccc1`
0.04

Tell us which TBIL value is on record for CN1C(=O)CCS(=O)(=O)C1c1ccc(Cl)cc1 (stereo not drawn)
0.026

For the compound `CCCc1cc(=O)[nH]c(=S)[nH]1` , give its measured TBIL value.
0.3

Find the measured TBIL of NC1=NC(=O)C(c2ccccc2)O1 (stereo not drawn) and report it.
0.026

# return recorded TBIL for entry `Nc1c2c(nc3ccccc13)CCCC2`
0.01

Quick one: give measured TBIL for `Cc1nnc2n1-c1ccc(Cl)cc1C(c1ccccc1Cl)=NC2`
0.054
